target: truncated form of human NaV 1.8 with full channel activity (Homo sapiens, UniProt Q9Y5Y9); experiment: E-VIPR Assay Method A for detecting and measuring Nav inhibition (HEK cells, membrane potential FRET dyes, electrical stimulation); assay type: cell-based; settings: HEK cells expressing human NaV 1.8, HS (human serum) in compound loading buffer, 11 point dose response, top dose 3 μM, Table 20A, read-out: Nav 1.8 MedChem Optical Assay EVIPR Assay Method A HS IC50
Sequence (Q9Y5Y9 126-1722 limits assumed): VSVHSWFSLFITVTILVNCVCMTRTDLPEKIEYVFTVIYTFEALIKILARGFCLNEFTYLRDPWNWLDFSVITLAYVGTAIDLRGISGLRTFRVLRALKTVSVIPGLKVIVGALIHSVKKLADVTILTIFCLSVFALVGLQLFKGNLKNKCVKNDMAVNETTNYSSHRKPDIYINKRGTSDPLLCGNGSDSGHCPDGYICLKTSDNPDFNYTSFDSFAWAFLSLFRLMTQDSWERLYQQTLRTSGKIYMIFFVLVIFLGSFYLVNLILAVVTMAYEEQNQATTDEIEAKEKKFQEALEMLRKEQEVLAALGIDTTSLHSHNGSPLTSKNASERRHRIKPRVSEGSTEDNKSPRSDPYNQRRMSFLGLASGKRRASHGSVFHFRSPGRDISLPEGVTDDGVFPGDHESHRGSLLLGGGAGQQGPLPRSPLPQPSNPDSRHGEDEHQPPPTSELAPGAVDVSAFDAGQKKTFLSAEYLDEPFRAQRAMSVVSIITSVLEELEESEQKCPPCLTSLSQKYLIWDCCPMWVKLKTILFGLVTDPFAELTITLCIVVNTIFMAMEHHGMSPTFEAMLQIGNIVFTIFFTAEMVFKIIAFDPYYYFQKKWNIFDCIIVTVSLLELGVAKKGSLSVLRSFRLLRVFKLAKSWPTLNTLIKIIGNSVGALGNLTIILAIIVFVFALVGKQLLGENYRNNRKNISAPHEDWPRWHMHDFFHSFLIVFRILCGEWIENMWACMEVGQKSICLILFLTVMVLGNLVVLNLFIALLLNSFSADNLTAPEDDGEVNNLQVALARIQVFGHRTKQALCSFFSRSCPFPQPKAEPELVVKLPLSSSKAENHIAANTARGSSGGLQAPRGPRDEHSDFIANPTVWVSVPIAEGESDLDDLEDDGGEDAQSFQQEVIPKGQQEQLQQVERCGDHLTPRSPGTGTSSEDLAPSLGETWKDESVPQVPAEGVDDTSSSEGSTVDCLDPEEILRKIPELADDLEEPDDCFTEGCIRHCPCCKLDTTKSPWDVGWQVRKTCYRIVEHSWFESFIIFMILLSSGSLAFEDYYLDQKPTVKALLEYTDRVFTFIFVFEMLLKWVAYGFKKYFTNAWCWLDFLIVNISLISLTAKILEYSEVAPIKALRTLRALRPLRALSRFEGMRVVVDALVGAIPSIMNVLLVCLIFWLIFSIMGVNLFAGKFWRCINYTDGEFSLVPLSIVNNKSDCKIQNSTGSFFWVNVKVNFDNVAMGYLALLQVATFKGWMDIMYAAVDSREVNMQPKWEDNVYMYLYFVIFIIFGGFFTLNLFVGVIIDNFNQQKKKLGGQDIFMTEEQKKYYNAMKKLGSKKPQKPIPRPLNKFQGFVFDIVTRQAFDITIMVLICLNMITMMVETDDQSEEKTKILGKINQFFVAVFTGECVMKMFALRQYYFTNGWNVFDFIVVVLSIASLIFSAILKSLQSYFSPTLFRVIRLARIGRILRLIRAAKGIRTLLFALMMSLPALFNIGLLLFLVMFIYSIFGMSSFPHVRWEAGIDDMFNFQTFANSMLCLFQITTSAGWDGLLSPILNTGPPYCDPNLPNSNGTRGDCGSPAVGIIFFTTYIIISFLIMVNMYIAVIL
pIC50: −log10 of the molar value.
Record yes (1) whenever pIC50 is at 8 or higher; record no (0) when lower.

[[record]]
molecule = "COc1ncccc1Oc1cc(Cl)c(Cl)cc1C(=O)Nc1ccc(F)c(C(N)=O)c1"
class_assignment = "no (0)"

[[record]]
molecule = "NC(=O)c1cc(NC(=O)c2c(Oc3ccc(OC(F)(F)F)cc3)ccc(Cl)c2F)ccn1"
class_assignment = "no (0)"

[[record]]
molecule = "NC(=O)c1cc(NC(=O)c2c(Oc3ccc(OC(F)(F)F)cc3)ccc(Cl)c2F)ccc1F"
class_assignment = "no (0)"

[[record]]
molecule = "[2H]C([2H])([2H])Oc1c(Oc2cc(Cl)c(C(F)F)c(OC)c2C(=O)Nc2ccnc(C(N)=O)c2)ccc(OC(F)(F)F)c1F"
class_assignment = "yes (1)"


Problem: Does `COc1c(C(F)(F)F)ccc(Oc2ccc(OC(F)(F)F)cc2)c1C(=O)Nc1ccnc(C(N)=O)c1` have a reported pIC50 of at least 8?
Result: no (0)

Problem: Test whether the molecule `CNC(=O)c1cc(NC(=O)c2cnc(C(F)(F)F)cc2Oc2ccc(OC(F)(F)F)cc2OC)cc(C)n1` records pIC50 of 8 or higher.
Result: no (0)

Problem: Entry `[2H]C([2H])([2H])Oc1c(Oc2ccc(C(F)F)c(F)c2C(=O)Nc2ccnc(C(N)=O)c2)ccc(OC(F)(F)F)c1F` : is its pIC50 no less than 8?
Result: yes (1)

Problem: Test whether the molecule `[2H]C([2H])([2H])Oc1cc(OC(F)(F)F)ccc1Oc1ccc(C(F)(F)F)c(F)c1C(=O)Nc1ccc(C(N)=O)cc1` records pIC50 of 8 or higher.
Result: yes (1)

Problem: Please tell me: is the molecule COc1cc(OC(F)(F)F)ccc1Oc1cc([C@H]2C[C@@H]2C)ncc1C(=O)Nc1ccc(F)c(C(N)=O)c1 (single isomer, unassigned) at or over 8 in terms of pIC50?
Result: no (0)

Problem: // inclusive: pIC50 at least 8? input: `NC(=O)c1cc(NC(=O)c2c(Oc3ccc(OC(F)(F)F)nc3)ccc(C(F)(F)F)c2F)ccc1F`
Result: no (0)

Problem: Quick check, pIC50 >= 8? `NC(=O)c1cccc(NC(=O)c2c(Oc3ccc(OC(F)(F)F)cc3F)ccc(C(F)(F)F)c2F)c1`
Result: no (0)

Problem: Does the reported pIC50 for `COc1cc(OC(F)(F)F)ccc1Oc1ccc(Cl)cc1C(=O)Nc1cc(C(N)=O)ncc1C` fall at or above the 8 mark?
Result: no (0)

---

target: truncated form of human NaV 1.8 with full channel activity (Homo sapiens, UniProt Q9Y5Y9); experiment: E-VIPR Assay Method A for detecting and measuring Nav inhibition (HEK cells, membrane potential FRET dyes, electrical stimulation); format: cell-based; conditions: HEK cells expressing human NaV 1.8, HS (human serum) in compound loading buffer, 11 point dose response, top dose 3 μM, Table 20A, read-out: Nav 1.8 MedChem Optical Assay EVIPR Assay Method A HS IC50
pIC50: −log10 of the molar value.
Label 1.0 when pIC50 >= 7; otherwise 0.0.

[[record]]
molecule = "COc1ccc(Oc2cccc(C(F)(F)F)c2C(=O)Nc2ccc(F)c(C(N)=O)c2)c(OC)c1 [Compound 38]"
class_assignment = 0.0


We now examine a further molecule.
Problem: Entry [2H]C([2H])([2H])Oc1c(Oc2ccc(C(F)(F)F)c(F)c2C(=O)Nc2ccnc(C(N)=O)c2)ccc(OC(F)(F)F)c1F [Compound 218] : is its pIC50 no less than 7?
Result: 1.0

# credit: patent US12281057B2
